Test system: barnyardgrass (Echinochloa crus-galli)
Test: Test A postemergence
Type: in vivo
Conditions: Echinochloa crus-galli, post-emergence, 240 h, Postemergence, 31 g ai/ha; 0 is no effect, 100 is complete control; read-out: Barnyardgrass plant response rating (0 to 100 scale)
Let's look at some compounds and their measured pest or weed control at 31 g/ha.

| SMILES | pest or weed control at 31 g/ha [%] |
| --- | --- |
| CN1C[C@H](c2ccc(Cl)cc2)[C@@H](C(=O)Nc2cccc(F)n2)C1=O | 90 |
| CN1C[C@H](c2ccc(F)c(Oc3ccccc3)c2)[C@@H](C(=O)Nc2cccc(F)c2F)C1=O | 30 |
| COc1ccc([C@H]2CN(C)C(=O)[C@@H]2C(=O)Nc2cccc(F)c2F)cc1 | 60 |
| CN1C[C@H](c2csc3c2CCC3)[C@@H](C(=O)Nc2ccccc2F)C1=O | 30 |

====

System: corn (Zea mays)
Experiment: Test C preemergence
Type: in vivo
Conditions: 62 g ai/ha, scale 0 to 100, 0 no effect, 100 complete control

| COMPOUND | Plant response rating, Corn |
| --- | --- |
| CN1CC(c2cccc(OC(F)(F)C(F)F)c2)C(C(=O)Nc2cccc(F)c2F)C1=O (centres unmarked) | 65 |
| Cc1ccc(C2CN(C)C(=O)C2C(=O)Nc2ccccc2S(C)(=O)=O)cc1 (centres unmarked) | 10 |
| Cc1ccc(C2CN(C)C(=O)C2C(=O)Nc2ccccc2C(F)(F)F)cc1 (centres unmarked) | 10 |
| Cc1ccc(C2CN(C)C(=O)C2C(=O)Nc2ccccc2F)cc1F (centres unmarked) | 55 |
| CN1CC(c2ccc(C(F)(F)F)c(F)c2)C(C(=O)Nc2cccc(F)c2F)C1=O (centres unmarked) | 50 |

====

Tested on: ryegrass, Italian (Italian ryegrass, Lolium multiflorum)
Assay: Test A postemergence
Format: in vivo
Conditions: 500 g ai/ha, postemergence; visual injury, 0 to 100 scale (0 no effect, 100 complete control), approx. 10 d
Let's look at some compounds and their measured Plant response rating, Ryegrass, Italian.

| COMPOUND | Plant response rating, Ryegrass, Italian |
| --- | --- |
| Cc1ccc(C2CN(C)C(=O)C2C(=O)Nc2ccccc2F)cc1 (stereo not shown) | 80 |
| CC(C)Oc1cccc(C2CN(C)C(=O)C2C(=O)Nc2cccc(F)c2F)c1 (stereo not shown) | 70 |
| O=C1NCC(c2cccc(C(F)(F)F)c2)C1C(=O)Nc1ccc(Cl)cc1F (racemic) | 0 |
| O=C1NCC(c2cccc3ccccc23)C1C(=O)Nc1ccccc1C(F)(F)F (racemic) | 0 |

====

Tested on: ryegrass, Italian (Italian ryegrass, Lolium multiflorum)
Test: Test A preemergence
Type: in vivo
Details: Lolium multiflorum, pre-emergence, 240 h, 500 g ai/ha, preemergence; visual injury rating about 10 d after treatment, 0 to 100 scale (0 no effect, 100 complete control); read-out: Ryegrass, Italian plant response rating

| COMPOUND | pest or weed control at 500 g/ha [%] |
| --- | --- |
| CN1C[C@H](c2cc(F)cc(C(F)(F)F)c2)[C@@H](C(=O)Nc2ccc(F)c(F)c2F)C1=O | 90 |
| Cc1ccc([C@H]2CNC(=S)[C@@H]2C(=O)Nc2ccccc2F)cc1 (racemic) | 0 |
| CS(=O)(=O)c1ccccc1NC(=O)[C@H]1C(=O)N(C2CC2)CC[C@@H]1c1cccc(C(F)(F)F)c1 | 0 |
| Cc1cc([C@H]2CN(C)C(=O)[C@@H]2C(=O)Nc2ccc(F)c(F)c2F)ccc1Br | 70 |
